- EXPERIMENT: protein stability index of a GFP-peptide fusion (GPS, HEK-293T) (PSI 1-6); higher = more stable;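 also: 24-mer peptide tiles fused after GFP, lentivirally expressed, FACS-sorted into six equal bins by GFP/DsRed ratio, decoded by Illumina sequencing, PSI is the read-weighted mean bin number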
- CONDITION SET: treatment: MLN4924 1 uM, 8 h; c terminus: a fixed tail appended
Is protein stability index at least 4? Then Satisfied. If not, Not satisfied.

{"columns": ["ORDERED RESIDUES", "CLASSIFICATION"],
 "data": [
  ["DPGQQFTWEHSNLEVNKPKNRYAN [PTPRD]", "Satisfied"],
  ["IVLLEELLPKGSKEEQRDYVFYLA [FIS1]", "Not satisfied"],
  ["RSEAVAQLWGQKKKNSNMTYEKLS [ELF3]", "Not satisfied"],
  ["THQHWQQFEPQLTLWDVFGANKEV [RSAD1]", "Not satisfied"],
  ["RCGKHFGTILNYLRDGAVPLPESR [KCTD10]", "Not satisfied"],
  ["IEPLVPEEKMETKTESSGIETEPT [EPB41L3]", "Satisfied"],
  ["SVLNGKFANLIKEFVIIDCRYPYE [CDC25A]", "Not satisfied"],
  ["QGLIEDCQLALQQKRETLSPLCLI [KCTD13]", "Not satisfied"],
  ["VTQREHSSEHVTESVADLLALEEP [SLC6A17]", "Satisfied"],
  ["LDMNFSLENREEPWVKELQDSKEM [ZNF449]", "Satisfied"]
]}

Decide: is the reported value of protein stability index for ETDSEMNSQESRSDLEDMEEEEGT [SMG5] equal to or greater than 4?
Satisfied

Decide: is the reported value of protein stability index for DIFALALTVVCAAGAEPLPRNGDQ [WEE1] equal to or greater than 4?
Not satisfied

Decide: is the reported value of protein stability index for RERQRRLEVEREAEKKREAKQRAK [LRRC59] equal to or greater than 4?
Satisfied

Decide: is the reported value of protein stability index for RDAAIKKLATEAGVEVIVRISHTL [CRY1] equal to or greater than 4?
Not satisfied

---

- EXPERIMENT: protein stability index of a GFP-peptide fusion (GPS, HEK-293T) (PSI 1-6); higher = more stable
- CONDITION SET: treatment: MLN4924 1 uM, 8 h; c terminus: a fixed tail appended
ATTRIBUTE MEASURED: protein stability index
Provide a numeric answer; units are not to be included.

Entry EEADFLSAETGSPRLTMHYPCLEK [IRX6] ; protein stability index = 4.56

Entry AILEMKWKVRAEKEACQREKELPA [ZBED2] ; protein stability index = 3.56

---

- EXPERIMENT: protein stability index of a GFP-peptide fusion (GPS, HEK-293T) (PSI 1-6); higher = more stable
- CONDITION SET: treatment: MLN4924 1 uM, 8 h; c terminus: a fixed tail appended
ATTRIBUTE MEASURED: protein stability index
Provide a numeric answer; units are not to be included.

Answered examples (5):
{"columns": ["ORDERED RESIDUES", "protein stability index"],
 "data": [
  ["KPSVDTEGPALVEIDRSVENTLLN [MIA2]", 5.07],
  ["PNNKEIPSHHPTDPVELRRLNFQT [PTPRD]", 4.35],
  ["DARYKLHHHLHKTLREITDQEHNV [TEKT4]", 4.02],
  ["GLTLGRSFSNYRPFEPQALGLSPS [SEPHS2]", 2.81],
  ["ILNLTQALKDNKSPLHLVQMPPVI [PI4K2A]", 2.35]
]}

Entry REIQPTAILSLDQIKAIRGSNEYT [SPRY1] ; protein stability index = 4.02

Entry VKSIVVKGYNIWTGGPDACLRCWD [TLE6] ; protein stability index = 2.24

Entry TKLPENQAIQMRLVDVACKHLTDT [INTS4] ; protein stability index = 3.58

Entry CQSGYFSSMFSGSWKESSMNIIEL [GMCL1] ; protein stability index = 2.34

Entry HPTYEEKLKLVALHKQVLMGPYNP [ACBD3] ; protein stability index = 2.69

Entry GQESEVPYKREEEALEERRLSRGE [PKD2L1] ; protein stability index = 5.53

Entry EAKEGDLHRIEIPFKFHMLHSGLV [CARM1] ; protein stability index = 2.49
